# EXPERIMENT: Cytotoxicity assay (MTT) on Vero cells
# Type: cell-based
# SETTINGS: monkey, five days, read-out: VERO CELL CC50
QUANTITY_KIND: CC50 at 5 days (µM)
Hi! Could you send only the number? It should be in µM, unit omitted.

C[C@]12CC[C@H](O)C[C@H]1CC[C@@H]1[C@@H]2CC[C@]2(C)[C@@H](c3ccc(=O)oc3)CC[C@]12O has a reported CC50 at 5 days of 10.6

###

Kindly supply the reported CC50 values for the records listed here.
# EXPERIMENT: Cytotoxicity assay (MTT) on Vero cells
# Type: cell-based
# SETTINGS: monkey, five days, read-out: VERO CELL CC50
Hi! Could you send only the number? It should be in µM, unit omitted.

CC(=O)O[C@H]1[C@H]2O[C@]23[C@@H]2CC[C@]4(O)C[C@@H](O)CC[C@]4(C)[C@H]2CC[C@]3(C)[C@H]1c1ccc(=O)oc1 has a reported CC50 of 1.88

COc1cccc2c1C(=O)c1c(O)c3c(c(O)c1C2=O)C[C@@](O)(C(=O)CO)C[C@@H]3O[C@H]1C[C@H](N)[C@H](O)[C@H](C)O1 [Doxorubicin, reference compound] has a reported CC50 of 0.23

O=C(Cn1ccnc1[N+](=O)[O-])NCc1ccccc1 [Benznidazole, reference compound] has a reported CC50 of 51.4

CCC(=O)OC1C(c2ccc(=O)oc2)C2(C)CCC3C(CCC4(O)CC(O)CCC34C)C23OC13 (centres unmarked) has a reported CC50 of 0.02

###

# Tested on: T. cruzi trypomastigotes
# EXPERIMENT: Anti-trypanosomal bioassay, T. cruzi Tulahuen clone C4 expressing β-galactosidase
# Type: cell-based, Trypanosoma cruzi
# SETTINGS: monkey (Vero host cells); Trypanosoma cruzi (parasite); read-out: Selectivity (CC50/EC50)
Kindly supply the reported selectivity ratio values for the records listed here.
Write no unit; give the number alone.

CC(=O)O[C@H]1[C@H]2O[C@]23[C@@H]2CC[C@]4(O)C[C@@H](O)CC[C@]4(C)[C@H]2CC[C@]3(C)[C@H]1c1ccc(=O)oc1 has a reported selectivity ratio of 0.07

CCC(=O)OC1C(c2ccc(=O)oc2)C2(C)CCC3C(CCC4(O)CC(O)CCC34C=O)C23OC13 (stereo not drawn) has a reported selectivity ratio of 1.16

O=C(Cn1ccnc1[N+](=O)[O-])NCc1ccccc1 [Benznidazole, reference compound] has a reported selectivity ratio of 18.8

###

# Tested on: T. cruzi trypomastigotes
# EXPERIMENT: Anti-trypanosomal bioassay, T. cruzi Tulahuen clone C4 expressing β-galactosidase
# Assay type: cell-based, Trypanosoma cruzi
# SETTINGS: monkey (Vero host cells); Trypanosoma cruzi (parasite), cytotoxicity on Vero cells/anti-trypanosomal activity ratio; read-out: Selectivity (CC50/EC50)
QUANTITY_KIND: selectivity ratio at 5 days
Write no unit; give the number alone.

C[C@]12CC[C@H](O)C[C@H]1CC[C@@H]1[C@@H]2CC[C@]2(C)[C@@H](c3ccc(=O)oc3)CC[C@]12O [Compound 7, bufalin] has a reported selectivity ratio at 5 days of 2.7

###

Kindly supply the reported CC50 values for the records listed here.
# EXPERIMENT: Cytotoxicity assay (MTT) on Vero cells
# Type: cell-based
# SETTINGS: monkey, five days, read-out: VERO CELL CC50

CC12CCC3C(CCC4(O)CC(O)CCC34C=O)C1(O)CC(O)C2c1ccc(=O)oc1 (stereo not drawn) [Compound 1, 16β-hydroxyl-hellebrigenin] has a reported CC50 of > 135 µM

CCC(=O)OC1C(c2ccc(=O)oc2)C2(C)CCC3C(CCC4(O)CC(O)CCC34C=O)C23OC13 (stereo not drawn) has a reported CC50 of 0.22 µM

C[C@]12CC[C@H](O)C[C@H]1CC[C@@H]1[C@@H]2CC[C@]2(C)[C@@H](c3ccc(=O)oc3)[C@@H](O)C[C@]12O has a reported CC50 of > 28 µM
